Hey, just so you know, these numbers are from PubChem BioAssay (NCI).

# Tested on: SF-539 CNS
# PROTOCOL_NOTES: NCI-60 one-dose screen, 48 h
# CONDITION_DETAILS: 10 µM unless noted
The panel holds about 83,000 compounds, 20% with a hit somewhere; the sample as a whole holds those more often. Calls of active or inactive are those of the source. How the source made its calls: active means growth percent below 10; inactive means the rest.
Outcomes: active, inactive

# COMPOUND, GROUP
data = [
    ("COCCCN=C(N)c1ccc(NC(=O)c2ccc(C(=O)Nc3ccc(C(N)=NCCCOC)cc3)cc2)cc1", "inactive"),
    ("COC(=O)[C@H](C(C)C)n1c(=O)c2cc(OC)c(OC)cc2c2cnc3[nH]ccc3c21", "active"),
    ("O=c1c2cccc3c(NC4CCCCC4)ccc(c32)c2nc3ccccc3n12", "inactive"),
    ("CC[C@H](Nc1cc(C)nc(N)n1)c1nc2cccc(NCc3ccc(C(=O)NO)cc3)c2c(=O)n1-c1ccccc1", "active"),
    ("Clc1nc(Cl)c2c3c(sc2n1)CCCC3", "inactive"),
    ("CCCCCCCCCCCCCC1=NCCN1CCO", "active"),
    ("COc1ccc(/C=C2\\N=C3Sc4cc(Cl)ccc4C(=O)N3C2=O)cc1", "inactive"),
    ("O=C(Cc1ccccc1)c1ccc(Cl)cc1", "inactive"),
    ("Brc1cccc(-c2cc(-c3ccc4c(c3)OCCO4)[nH]n2)c1", "active"),
    ("CCCCCCCCCCCCN1CCCC(C)C1 (stereo not drawn)", "inactive"),
    ("CCN(CC)CC(O)c1cc(-c2ccc(Cl)cc2)nc2c(C)c(Cl)ccc12 (stereo not drawn)", "active"),
    ("COc1ccccc1/C=C(/C(=O)c1ccccc1)c1ccccc1", "inactive"),
    ("C[C@H](CCC(=O)O)[C@H]1CC[C@H]2[C@@H]3CC[C@@H]4/C(=C\\c5ccco5)C(=O)/C(=C\\c5ccco5)C[C@]4(C)[C@H]3CC[C@]12C", "inactive"),
    ("CC1=NNC(=O)C1C (stereo not drawn)", "inactive"),
    ("O=C1O[C@H]([C@H](O)CO)C(O)=C1O", "inactive"),
    ("COc1ccc(C2c3ccc4ccccc4c3Oc3ncnc(N)c32)cc1 (stereo not drawn)", "inactive"),
    ("O=[N+]([O-])c1c(F)cccc1Nc1cccc(F)c1", "inactive"),
    ("CCCCCC(=O)Oc1ccc(/C(=C(\\C)c2ccccc2)c2ccc(OCCN(CC)CC)cc2)cc1", "inactive"),
    ("C[C@@H]1CC[C@@H]2[C@@H]1[C@H](OC(=O)/C=C/c1ccccc1)[C@]1(C3CCCCC3)C[C@@H](OC(=O)CO)[C@@]2(C)O1", "inactive"),
    ("C=C(CN1CCN(c2cccc(C(F)(F)F)n2)CC1)c1ccc(C(=O)Nc2ccccc2N)cc1", "active"),
    ("CC[C@@H](C)OC(=O)c1nn(C(C)=O)c2ccccc12", "inactive"),
    ("COc1ccc(CCN2CCCn3c2nc2ccccc2c3=O)cc1", "active"),
    ("CN1C2CCC1/C(=C\\c1ccc(Cl)cc1)C1=C2[C@@H](c2ccc(Cl)cc2)C(C#N)=C(N)O1 (stereo partly drawn)", "inactive"),
    ("Cc1cc2cc3cc(C)c(N(C)C)cc3[n+](C)c2cc1N(C)C", "active"),
    ("COCCOC(=O)C1=C(C)NC(=S)NC1c1ccc2c(c1)OCO2 (stereo not drawn)", "inactive"),
    ("CCN(CC)CC(C)(C)C(=O)/C=C/c1ccccc1", "inactive"),
    ("Nc1cc2nc3ccccc3sc-2cc1=O", "inactive"),
    ("C#Cc1nc2ccccc2c(=O)[nH]1", "active"),
    ("CCCCCCCCCCCCS(=O)CC(C)O (stereo not drawn)", "inactive"),
    ("CC(=O)Oc1cc2cnc3c4cc(OC(C)=O)c(OC(C)=O)cc4ccc3c2cc1OC(C)=O", "active"),
    ("O=C1C2CC=CCC2C(=O)N1CNc1ccc(Cl)cc1 (stereo not drawn)", "inactive"),
    ("COc1cccc(-n2cc(-c3nc(Nc4cc(C)[nH]n4)c4ccccc4n3)nn2)c1", "inactive"),
    ("O=c1cc(-c2ccccc2)[nH]c2ccccc12", "active"),
    ("CC(C)C1=C[C@@]23CC[C@@H]4[C@](C)(CCC[C@@]4(C)C(=O)OCC#CCN4CCCC4)[C@H]2C[C@@H]1[C@H]1C(=O)OC(=O)[C@H]13", "inactive"),
    ("O=[N+]([O-])c1cccc(-c2nc3sccn3c2-c2ccnc(NCCCNS(=O)(=O)c3cccc(F)c3)n2)c1", "inactive"),
    ("CC(C)n1cc2c(N)ncnc2n1", "inactive"),
    ("O=C(CNC1C2CC3CC(C2)CC1C3)Sc1nnc2sc3ccccc3n12 (stereo not drawn)", "inactive"),
    ("COC(=S)SCN(CSC(=S)OC)c1ccc(Cl)cc1", "inactive"),
    ("COc1cc(/C=N\\NC(=O)CN2CCN(c3cc4c(cc3F)c(=O)c(C(=O)N/N=C/c3ccc(O)c(OC)c3)cn4C3CC3)CC2)ccc1O", "inactive"),
    ("COc1c(Cl)cc(Cl)cc1Cl", "inactive"),
    ("O=C(/C=C\\c1cccc([N+](=O)[O-])c1)c1ccccc1", "inactive"),
    ("Cc1ccc2c(c1)C(=O)c1c-2c(OCCCN(C)C)nc2ccccc12", "inactive"),
    ("O=C(Nc1ccc(Oc2ccc(F)cc2)c(Cl)c1)c1cccnc1", "inactive"),
]
